# Test system: Canis familiaris
# EXPERIMENT SUMMARY: Toxicity in telemetered beagle dog assessed as increase in systolic pressure at 5 mg/kg administered via oral gavage measured during 4 hrs of post dosing
# Type: organism-based, Canis lupus familiaris
# MEASUREMENT CONDITIONS: in vivo
MEASURED ENDPOINT: Activity

The value of Activity measured for the compound C[C@@H](c1nc2ccc(N3CCC[C@@H](C(=O)N4CCCC4)C3)nc2[nH]1)n1cc(Cl)cn1 turned out to be 4 to 6 mmHg

* * *

# ASSAYED TARGET: Diacylglycerol O-acyltransferase 2 (Rattus norvegicus, UniProt Q5FVP8)
# Sequence (Q5FVP8 whole entry): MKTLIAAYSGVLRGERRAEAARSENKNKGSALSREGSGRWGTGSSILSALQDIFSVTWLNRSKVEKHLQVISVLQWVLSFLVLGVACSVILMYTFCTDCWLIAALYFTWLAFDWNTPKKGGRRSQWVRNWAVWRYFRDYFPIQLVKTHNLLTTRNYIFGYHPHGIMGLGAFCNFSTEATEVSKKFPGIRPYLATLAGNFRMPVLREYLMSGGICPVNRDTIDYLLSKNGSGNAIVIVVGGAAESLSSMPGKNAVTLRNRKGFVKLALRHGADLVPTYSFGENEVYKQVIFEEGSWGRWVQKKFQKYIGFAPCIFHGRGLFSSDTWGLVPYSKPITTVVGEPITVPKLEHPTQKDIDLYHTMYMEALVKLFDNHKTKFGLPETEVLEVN
MEASURED ENDPOINT: pIC50
Quick note: pIC50 values are minus log10 of concentrations in mol/L.

Reported Diacylglycerol O-acyltransferase 2 (Rattus norvegicus, UniProt Q5FVP8) pIC50 for item CC(c1nc2cnc(N3CCC[C@@H](C(=O)N4CCCC4)C3)nc2[nH]1)n1cc(Cl)cn1 (single isomer, unassigned; diastereomer 1) was 6.62
